- ASSAY_EXPLANATION: Clearance in BALB/c mouse at 20 mg/kg, po by LC-MS analysis
- Format: ADME, organism-based
- TEST_CONDITIONS: in vivo
REPORTED_ENDPOINT: CL/F (mL/min/kg)
Number in mL/min/kg, nothing else.

Could you share which CL/F value was measured for "Nc1nc2ccc(C(=O)NCc3ccccc3)cc2s1" ?
68

###

Would you mind telling me the reported inhibition of each entry?
- Tested on: Trypanosoma brucei
- ASSAY_EXPLANATION: Inhibition of N-terminal His-tagged Trypanosoma brucei pteridine reductase 1 at 50 uM using di-hydrobiopterine as substrate measured at 1 min interval for 50 mins in presence of NADPH relative to control
Number in %, nothing else.

Find inhibition (Trypanosoma brucei) for the entry "Nc1nc2ccc(S(=O)(=O)Cc3ccc(Cl)c(Cl)c3)cc2s1"
16.7

Find inhibition (Trypanosoma brucei) for the entry "Nc1nc2c(O)cc(C(=O)NCc3ccc(Cl)c(Cl)c3)cc2s1"
11.8

Find inhibition (Trypanosoma brucei) for the entry "COc1cc(CNC(=O)c2ccc3nc(N)sc3c2)cc(OC)c1OC"
30.8

###

- ASSAY_EXPLANATION: Mitochondrial toxicity in human 786-O cells measured after 6 hrs by MitoTracker Red chloromethyl-X-rosamine based assay
- Format: cell-based, 786-0
Would you mind telling me the reported IC50 at 6 h of each entry?

Could you share which IC50 at 6 h value was measured for "COC(=O)C1CCN(C(=O)c2ccc3nc(N)sc3c2)CC1" ?
> 25 µM

Could you share which IC50 at 6 h value was measured for "Nc1nc2ccc(C(=O)NCc3ccccc3)cc2s1" ?
> 25 µM

Could you share which IC50 at 6 h value was measured for "Nc1nc2ccc(OC(F)(F)F)cc2s1" ?
> 25 µM

Could you share which IC50 at 6 h value was measured for "Nc1nc2ccc(S(=O)(=O)Cc3ccccc3)cc2s1" ?
> 25 µM

Could you share which IC50 at 6 h value was measured for "N#Cc1ccc(COc2ccc3nc(N)sc3c2)cc1" ?
> 25 µM

Could you share which IC50 at 6 h value was measured for "COC(=O)c1ccc(CS(=O)(=O)c2ccc3nc(N)sc3c2)cc1" ?
> 25 µM

Could you share which IC50 at 6 h value was measured for "COc1ccc2nc(N)sc2c1" ?
< 10 µM

Could you share which IC50 at 6 h value was measured for "Nc1nc2ccc(OCc3ccc(Cl)c(Cl)c3)cc2s1" ?
> 25 µM

Could you share which IC50 at 6 h value was measured for "Nc1nc2ccc(SCc3ccccc3)cc2s1" ?
> 25 µM

Could you share which IC50 at 6 h value was measured for "Nc1nc2ccc(C(=O)NCc3ccc(Cl)c(Cl)c3)cc2s1" ?
< 10 µM

Could you share which IC50 at 6 h value was measured for "N#Cc1ccc(CNC(=O)c2ccc3nc(N)sc3c2)cc1" ?
> 25 µM

Could you share which IC50 at 6 h value was measured for "COC(=O)c1ccc(COc2ccc3nc(N)sc3c2)cc1" ?
> 25 µM

Could you share which IC50 at 6 h value was measured for "Nc1nc2ccc(C(=O)NCCc3c[nH]c4ccccc34)cc2s1" ?
> 25 µM

###

- ASSAY_EXPLANATION: Selectivity index ratio of NOAEL for human THP1 cells to EC50 for growth inhibition of Trypanosoma brucei bloodstream forms
- Assay type: toxicity
- TEST_CONDITIONS: read-out: Selectivity Index
REPORTED_ENDPOINT: selectivity ratio

Could you share which selectivity ratio value was measured for "Nc1nc2ccc(C(=O)NCc3ccccc3)cc2s1" ?
> 10

###

- ASSAY_EXPLANATION: Cmax in BALB/c mouse at 20 mg/kg, po co-formulated with hydroxypropyl-beta-cyclodextrin by LC-MS analysis
- Format: ADME, organism-based
- Design: dose 20 mg/kg, route oral
- TEST_CONDITIONS: in vivo
REPORTED_ENDPOINT: Cmax
Form field: result (number plus unit)

Could you share which Cmax value was measured for "Nc1nc2ccc(C(=O)NCc3ccccc3)cc2s1" ?
13 µM

###

REPORTED_ENDPOINT: IC50

Find IC50 (Cytochrome P450 2D6 (Homo sapiens, UniProt P10635)) for the entry "Nc1nc2c(O)cc(C(=O)NCc3ccc(Cl)c(Cl)c3)cc2s1"
> 25 µM

Find IC50 (Cytochrome P450 2D6 (Homo sapiens, UniProt P10635)) for the entry "N#Cc1ccc(CNC(=O)c2ccc3nc(N)sc3c2)cc1"
> 25 µM

Find IC50 (Cytochrome P450 2D6 (Homo sapiens, UniProt P10635)) for the entry "COC(=O)C1CCN(C(=O)c2ccc(COc3ccc4nc(N)sc4c3)cc2)CC1"
> 25 µM

Find IC50 (Cytochrome P450 2D6 (Homo sapiens, UniProt P10635)) for the entry "CS(=O)(=O)c1ccc2nc(N)sc2c1"
> 25 µM

Find IC50 (Cytochrome P450 2D6 (Homo sapiens, UniProt P10635)) for the entry "Nc1nc2ccc(C(=O)N(Cc3ccccc3)Cc3ccc(Cl)c(Cl)c3)cc2s1"
< 10 µM

Find IC50 (Cytochrome P450 2D6 (Homo sapiens, UniProt P10635)) for the entry "Nc1nc2ccc(C(=O)NCc3ccccc3N)cc2s1"
10 to 25 µM

###

- ASSAY_EXPLANATION: Cmax in BALB/c mouse at 20 mg/kg, po by LC-MS analysis
- Assay type: ADME, organism-based
- Parameters: dose 20 mg/kg, route oral
- TEST_CONDITIONS: in vivo
REPORTED_ENDPOINT: Cmax (µg/mL)
Number in µg/mL, nothing else.

Could you share which Cmax value was measured for "Nc1nc2ccc(C(=O)NCc3ccccc3)cc2s1" ?
0.826

###

- MEASURED_ON: Cytochrome P450 2D6 (Homo sapiens, UniProt P10635)
- Sequence (P10635 whole entry): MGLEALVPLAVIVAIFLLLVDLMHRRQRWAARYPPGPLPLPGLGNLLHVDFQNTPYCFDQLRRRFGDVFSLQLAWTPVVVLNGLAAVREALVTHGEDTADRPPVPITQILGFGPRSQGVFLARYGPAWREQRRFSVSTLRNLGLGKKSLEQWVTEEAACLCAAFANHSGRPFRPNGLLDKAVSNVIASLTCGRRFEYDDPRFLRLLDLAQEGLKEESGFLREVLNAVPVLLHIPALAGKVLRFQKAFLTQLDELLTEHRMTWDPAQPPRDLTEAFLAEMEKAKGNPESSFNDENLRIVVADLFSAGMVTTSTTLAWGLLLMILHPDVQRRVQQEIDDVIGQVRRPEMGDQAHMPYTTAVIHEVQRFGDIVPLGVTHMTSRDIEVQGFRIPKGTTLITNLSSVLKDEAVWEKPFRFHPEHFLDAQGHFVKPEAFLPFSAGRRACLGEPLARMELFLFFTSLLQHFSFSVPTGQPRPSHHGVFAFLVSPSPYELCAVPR
pIC50: −log10 of the molar value.
REPORTED_ENDPOINT: pIC50

Could you share which pIC50 value was measured for "COC(=O)C1CCN(C(=O)c2ccc(CS(=O)(=O)c3ccc4nc(N)sc4c3)cc2)CC1" ?
> 5.00

Could you share which pIC50 value was measured for "Nc1nc2ccc(C(=O)NC(c3ccccc3)c3ccccc3)cc2s1" ?
> 5.00

Could you share which pIC50 value was measured for "Nc1nc2ccc(S(=O)(=O)Cc3ccc(Cl)c(Cl)c3)cc2s1" ?
> 5.00

Could you share which pIC50 value was measured for "COc1cc(CNC(=O)c2ccc3nc(N)sc3c2)cc(OC)c1OC" ?
< 4.60

Could you share which pIC50 value was measured for "N#Cc1ccc(COc2ccc3nc(N)sc3c2)cc1" ?
< 4.60

Could you share which pIC50 value was measured for "COC(=O)c1ccc(CS(=O)(=O)c2ccc3nc(N)sc3c2)cc1" ?
> 5.00

###

- ASSAY_EXPLANATION: Clearance in BALB/c mouse at 20 mg/kg, po co-formulated with hydroxypropyl-beta-cyclodextrin by LC-MS analysis
- Type: ADME, organism-based
- TEST_CONDITIONS: in vivo
REPORTED_ENDPOINT: CL/F (mL/min/kg)
Number in mL/min/kg, nothing else.

Could you share which CL/F value was measured for "Nc1nc2ccc(C(=O)NCc3ccccc3)cc2s1" ?
41

###

- MEASURED_ON: Cytochrome P450 3A4 (Homo sapiens, UniProt P08684)
- Sequence (P08684 whole entry): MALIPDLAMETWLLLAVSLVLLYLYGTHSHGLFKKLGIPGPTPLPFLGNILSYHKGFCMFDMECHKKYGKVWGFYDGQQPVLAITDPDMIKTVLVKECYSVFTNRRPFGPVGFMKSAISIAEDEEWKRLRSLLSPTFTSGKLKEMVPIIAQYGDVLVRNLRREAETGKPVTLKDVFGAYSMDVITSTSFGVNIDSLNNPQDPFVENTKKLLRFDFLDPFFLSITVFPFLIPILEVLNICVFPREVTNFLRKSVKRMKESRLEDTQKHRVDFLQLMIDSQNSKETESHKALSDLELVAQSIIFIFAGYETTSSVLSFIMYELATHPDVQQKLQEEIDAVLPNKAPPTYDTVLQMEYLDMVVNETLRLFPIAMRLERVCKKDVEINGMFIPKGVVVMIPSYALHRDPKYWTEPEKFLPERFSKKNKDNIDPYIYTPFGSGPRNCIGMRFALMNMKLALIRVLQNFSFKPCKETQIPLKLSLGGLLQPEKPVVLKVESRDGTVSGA
pIC50: −log10 of the molar value.
REPORTED_ENDPOINT: pIC50

Find pIC50 (Cytochrome P450 3A4 (Homo sapiens, UniProt P08684)) for the entry "Nc1nc2ccc(SCc3ccccc3)cc2s1"
4.60 to 5.00

Find pIC50 (Cytochrome P450 3A4 (Homo sapiens, UniProt P08684)) for the entry "Nc1nc2ccc(C(=O)NCCc3cccs3)cc2s1"
< 4.60

Find pIC50 (Cytochrome P450 3A4 (Homo sapiens, UniProt P08684)) for the entry "Nc1nc2ccc(C(=O)NC(c3ccccc3)c3ccccc3)cc2s1"
> 5.00

Find pIC50 (Cytochrome P450 3A4 (Homo sapiens, UniProt P08684)) for the entry "N#Cc1ccc(CNC(=O)c2ccc3nc(N)sc3c2)cc1"
< 4.60

Find pIC50 (Cytochrome P450 3A4 (Homo sapiens, UniProt P08684)) for the entry "N#Cc1ccc(CS(=O)(=O)c2ccc3nc(N)sc3c2)cc1"
> 5.00

Find pIC50 (Cytochrome P450 3A4 (Homo sapiens, UniProt P08684)) for the entry "Nc1nc2ccc(OCc3ccc(Cl)c(Cl)c3)cc2s1"
> 5.00

Find pIC50 (Cytochrome P450 3A4 (Homo sapiens, UniProt P08684)) for the entry "Nc1nc2ccc(C(=O)NCc3ccc(Cl)c(Cl)c3)cc2s1"
> 5.00

Find pIC50 (Cytochrome P450 3A4 (Homo sapiens, UniProt P08684)) for the entry "N#Cc1ccc(COc2ccc3nc(N)sc3c2)cc1"
4.60 to 5.00

Find pIC50 (Cytochrome P450 3A4 (Homo sapiens, UniProt P08684)) for the entry "COC(=O)C1CCN(C(=O)c2ccc(CSc3ccc4nc(N)sc4c3)cc2)CC1"
> 5.00

Find pIC50 (Cytochrome P450 3A4 (Homo sapiens, UniProt P08684)) for the entry "Nc1nc2ccc(C(=O)N(CCO)Cc3ccccc3)cc2s1"
4.60 to 5.00

Find pIC50 (Cytochrome P450 3A4 (Homo sapiens, UniProt P08684)) for the entry "COC(=O)c1ccc(COc2ccc3nc(N)sc3c2)cc1"
4.60 to 5.00

Find pIC50 (Cytochrome P450 3A4 (Homo sapiens, UniProt P08684)) for the entry "CSc1ccc2nc(N)sc2c1"
< 4.60

Find pIC50 (Cytochrome P450 3A4 (Homo sapiens, UniProt P08684)) for the entry "COc1cc(CNC(=O)c2ccc3nc(N)sc3c2)cc(OC)c1OC"
< 4.60

Find pIC50 (Cytochrome P450 3A4 (Homo sapiens, UniProt P08684)) for the entry "COC(=O)c1ccc(CSc2ccc3nc(N)sc3c2)cc1"
> 5.00
